The reported numbers originate from patent US9895352B2.

- assay.procedure: Half-life in dog hepatocytes
- Assay type: in vitro ADME
- condition.label: read-out: Half life of cmpds
readout: half-life

[[record]]
compound = "COc1ccc(C(=O)CC2(O)C(=O)Nc3c(Cl)ccc(Cl)c32)cc1 (racemic)"
val = "16.7 min"

[[record]]
compound = "O=C(CC1(O)C(=O)Nc2c(Cl)ccc(Cl)c21)c1ccc(N2CCCC2)cc1 (single isomer, unassigned)"
val = "30.6 min"

[[record]]
compound = "O=c1ccc2ccc(O)cc2o1 [7-Hydroxycoumarin, reference compound]"
val = "9.38 min"

[[record]]
compound = "O=C(CC1(O)C(=O)Nc2c(Cl)ccc(Cl)c21)c1ccc(C2CC2)cc1 (single isomer, unassigned)"
val = "20.3 min"


###

- assay.procedure: Half-life in human hepatocytes
- Format: in vitro ADME
- condition.label: read-out: Half life of cmpds
Quick reference for half-life among some compounds
readout: half-life

[[record]]
compound = "O=C(CC1(O)C(=O)Nc2c(Cl)ccc(Cl)c21)c1ccc(N2CCCC2)cc1 (single isomer, unassigned) [Cmpd 18]"
readout = "half-life"
val = "63.6 min"

[[record]]
compound = "O=C(CC1(O)C(=O)Nc2c(Cl)ccc(Cl)c21)c1ccc(C2CC2)cc1 (single isomer, unassigned) [Cmpd 14]"
readout = "half-life"
val = "75.9 min"

[[record]]
compound = "CCOc1ccc2ccc(=O)oc2c1 [7-Ethoxycoumarin, reference compound]"
readout = "half-life"
val = "45.3 min"

[[record]]
compound = "COc1ccc(C(=O)CC2(O)C(=O)Nc3c(Cl)ccc(Cl)c32)cc1 (racemic) [Cmpd 1]"
readout = "half-life"
val = "45.5 min"

[[record]]
compound = "O=c1ccc2ccc(O)cc2o1 [7-Hydroxycoumarin, reference compound]"
readout = "half-life"
val = "20.8 min"


###

- assay.procedure: in vitro
- condition.label: mouse, microsomes
half-life values, listed per item
readout: half-life (min)

[[record]]
compound = "C[C@]12CC[C@H]3[C@@H](CCC4=CC(=O)CC[C@@]43C)[C@@H]1CC[C@@H]2O [Testosterone, reference compound]"
val = 3.3

[[record]]
compound = "O=C(CC1(O)C(=O)Nc2c(Cl)ccc(Cl)c21)c1ccc(C2CC2)cc1 (single isomer, unassigned)"
val = 23.1

[[record]]
compound = "O=C(O)Cc1ccccc1Nc1c(Cl)cccc1Cl [Diclofenac, reference compound]"
val = 39.2


###

- condition.label: human liver microsome, no cofactor, 60 min
Consider the following molecules and their measured Remaining (NCF = 60 min) readings.
readout: Remaining (NCF = 60 min) (%)

[[record]]
molecule = "O=C(CC1(O)C(=O)Nc2c(Cl)ccc(Cl)c21)c1ccc(C2CC2)cc1F (single isomer, unassigned) [Cmpd 38]"
readout = "Remaining (NCF = 60 min)"
val = 99.5

[[record]]
molecule = "O=C(CC1(O)C(=O)Nc2c(Cl)ccc(Cl)c21)c1ccc(C2CC2)cc1 (single isomer, unassigned) [Cmpd 13]"
readout = "Remaining (NCF = 60 min)"
val = 105.1

[[record]]
molecule = "O=C(CC1(O)C(=O)Nc2c(Cl)ccc(Cl)c21)c1ccc(C2CC2)cc1 (single isomer, unassigned) [Cmpd 14]"
readout = "Remaining (NCF = 60 min)"
val = 104.5

[[record]]
molecule = "O=C(CC1(O)C(=O)Nc2c(Cl)ccc(Cl)c21)c1ccc(N2CCCC2)cc1 (single isomer, unassigned)"
readout = "Remaining (NCF = 60 min)"
val = 99.4

[[record]]
molecule = "O=C(CC1(O)C(=O)Nc2c(Cl)ccc(Cl)c21)c1ccc(C2CC2)cc1F (single isomer, unassigned) [Cmpd 39]"
readout = "Remaining (NCF = 60 min)"
val = 100.0

[[record]]
molecule = "COc1ccc(C(=O)CC2(O)C(=O)Nc3c(Cl)ccc(Cl)c32)cc1 (single isomer, unassigned) [Cmpd 3]"
readout = "Remaining (NCF = 60 min)"
val = 112.6

[[record]]
molecule = "O=C(CC1(O)C(=O)Nc2c(Cl)ccc(Cl)c21)c1ccc(C2CC2)c(F)c1 (single isomer, unassigned) [Cmpd 36]"
readout = "Remaining (NCF = 60 min)"
val = 104.0

[[record]]
molecule = "C[C@]12CC[C@H]3[C@@H](CCC4=CC(=O)CC[C@@]43C)[C@@H]1CC[C@@H]2O [Testosterone, reference compound]"
readout = "Remaining (NCF = 60 min)"
val = 88.1

[[record]]
molecule = "O=C(CC1(O)C(=O)Nc2c(Cl)ccc(Cl)c21)c1ccc(C2CC2)c(F)c1 (single isomer, unassigned) [Cmpd 37]"
readout = "Remaining (NCF = 60 min)"
val = 103.4

[[record]]
molecule = "COc1ccc(C(=O)CC2(O)C(=O)Nc3c(Cl)ccc(Cl)c32)cc1 (single isomer, unassigned) [Cmpd 2]"
readout = "Remaining (NCF = 60 min)"
val = 112.1

